These entries and their values trace back to paper PMC11277489.

- System: COLO 205
- Test Protocol: NCI60 five-dose screen, Colon Cancer
- Type: cell-based
- Settings: Homo sapiens; COLO 205, Colon Cancer; five-dose screen; read-out: GI50
With a cut-off of 2000 nM, any GI50 strictly below it is called Condition met; any GI50 meeting it or above is called Condition not met.

Consider the worked cases shown below.
CC[C@]12C=CCN3CC[C@@]4(c5ccc(OC)cc5N(C)[C@H]4[C@@](O)(C(=O)OC)[C@@H]1OC(=O)CCC(=O)N1CCN(Cc4ccc(C(F)(F)F)cc4)CC1)[C@@H]32 : Condition not met
CCC12C=CCN3CCC4(c5cc(NC(=O)CN6CCN(c7ccc(C(F)(F)F)cc7)CC6)c(OC)cc5N(C)C4C(O)(C(=O)OC)C1OC(C)=O)C32 (centres unmarked) : Condition not met
CC[C@]12C=CCN3CC[C@@]4(c5ccc(OC)cc5N(C)[C@H]4[C@@](O)(C(=O)OC)[C@@H]1OC(=O)CCCN1CCN(c4ccc(C(F)(F)F)cc4)CC1)[C@@H]32 : Condition met
CC[C@]12C=CCN3CC[C@@]4(c5ccc(OC)cc5N(C)[C@H]4[C@@](O)(C(=O)OC)[C@@H]1OC(=O)CCC(=O)N1CCN(c4ccc(C(F)(F)F)cc4)CC1)[C@@H]32 : Condition met
CC[C@]12C=CCN3CC[C@@]4(c5ccc(OC)cc5N(C)[C@H]4[C@@](O)(C(=O)OC)[C@@H]1OC(=O)CCC(=O)N1CCN(C(c4ccc(F)cc4)c4ccc(F)cc4)CC1)[C@@H]32 : Condition not met

Ask | Is 2000 nM strictly greater than the compound's reported GI50? compound: `CC[C@]12C=CCN3CC[C@@]4(c5ccc(OC)cc5N(C)[C@H]4[C@@](O)(C(=O)OC)[C@@H]1OC(=O)CCCN1CCN(Cc4ccc(C(F)(F)F)cc4)CC1)[C@@H]32`
Reply | Condition met

Ask | Is 2000 nM strictly greater than the compound's reported GI50? compound: CCC12C=CCN3CCC4(c5cc(NC(=O)CN6CCN(C(c7ccc(F)cc7)c7ccc(F)cc7)CC6)c(OC)cc5N(C)C4C(O)(C(=O)OC)C1OC(C)=O)C32 (centres unmarked)
Reply | Condition not met

###

Quick reference for activity at 10 µM among some compounds
- Test system: SK-OV-3
- Test Protocol: NCI60 one-dose screen (10 μM), Ovarian Cancer
- Format: cell-based
- Settings: Homo sapiens; 10 μM; SK-OV-3, Ovarian Cancer; read-out: Growth percent rate
# unit: % | format: bare number

# count of solved cases: 5
CCC12C=CCN3CCC4(c5cc(NC(=O)CN6CCN(c7ccc(C(F)(F)F)cc7)CC6)c(OC)cc5N(C)C4C(O)(C(=O)OC)C1OC(C)=O)C32 (stereo not drawn) : 6.93
CCC12C=CCN3CCC4(c5cc(NC(=O)CCl)c(OC)cc5N(C)C4C(O)(C(=O)OC)C1OC(C)=O)C32 (stereo not drawn) : 33.9
CCC12C=CCN3CCC4(c5cc(NC(=O)CN6CCN(C(=O)c7ccco7)CC6)c(OC)cc5N(C)C4C(O)(C(=O)OC)C1OC(C)=O)C32 (stereo not drawn) : 113
CC[C@]12C=CCN3CC[C@@]4(c5ccc(OC)cc5N(C)[C@H]4[C@@](O)(C(=O)OC)[C@@H]1OC(=O)CCC(=O)N1CCN(c4ccc(C(F)(F)F)cc4)CC1)[C@@H]32 : 37.5
CC[C@]12C=CCN3CC[C@@]4(c5ccc(OC)cc5N(C)[C@H]4[C@@](O)(C(=O)OC)[C@@H]1OC(=O)CCC(=O)N1CCN(C)CC1)[C@@H]32 : 106

Ask | Consider the compound shown here: CCC12C=CCN3CCC4(c5ccc(OC)cc5N(C)C4C(O)(C(=O)OC)C1OC(=O)CCCN1CCN(C)CC1)C32 (stereo not drawn) What is its recorded activity at 10 µM?
Reply | 93.3

###

- Test system: MDA-MB-231/ATCC
- Test Protocol: NCI60 one-dose screen (10 μM), Breast Cancer
- Type: cell-based, human
- Settings: Homo sapiens; 10 μM; MDA-MB-231/ATCC, Breast Cancer; read-out: Growth percent rate
Quick reference for activity at 10 µM among some molecules
# unit: % | format: bare number

CC[C@]12C=CCN3CC[C@@]4(c5ccc(OC)cc5N(C)[C@H]4[C@@](O)(C(=O)OC)[C@@H]1OC(=O)CCC(=O)N1CCN(Cc4ccc(C(F)(F)F)cc4)CC1)[C@@H]32 [Compound 29] : 3.02

Ask | Consider the molecule shown here: CCC12C=CCN3CCC4(c5cc(NC(=O)CN6CCN(C(c7ccc(F)cc7)c7ccc(F)cc7)CC6)c(OC)cc5N(C)C4C(O)(C(=O)OC)C1OC(C)=O)C32 (stereo not drawn) [Compound 20] What is its recorded activity at 10 µM?
Reply | -4.47

Ask | Consider the molecule shown here: CC[C@]12C=CCN3CC[C@@]4(c5ccc(OC)cc5N(C)[C@H]4[C@@](O)(C(=O)OC)[C@@H]1OC(=O)CCCN1CCN(c4ccc(C(F)(F)F)cc4)CC1)[C@@H]32 [Compound 22] What is its recorded activity at 10 µM?
Reply | -67.4

Ask | Consider the molecule shown here: CC[C@]12C=CCN3CC[C@@]4(c5ccc(OC)cc5N(C)[C@H]4[C@@](O)(C(=O)OC)[C@@H]1OC(=O)CCCN1CCN(C(=O)c4ccco4)CC1)[C@@H]32 [Compound 26] What is its recorded activity at 10 µM?
Reply | 102

Ask | Consider the molecule shown here: CCC12C=CCN3CCC4(c5ccc(OC)cc5N(C)C4C(O)(C(=O)OC)C1OC(=O)CCCN1CCN(C)CC1)C32 (stereo not drawn) [Compound 3] What is its recorded activity at 10 µM?
Reply | 80.4

Ask | Consider the molecule shown here: CCC12C=CCN3CCC4(c5cc(NC(=O)CN6CCN(C)CC6)c(OC)cc5N(C)C4C(O)(C(=O)OC)C1OC(C)=O)C32 (stereo not drawn) [Compound 16] What is its recorded activity at 10 µM?
Reply | 102

###

- Tested on: MDA-MB-435
- Test Protocol: NCI60 one-dose screen (10 μM), Melanoma
- Format: cell-based
- Settings: Homo sapiens, MDA-MB-435, read-out: Growth percent rate
Value Kind: activity at 10 µM

CCC12C=CCN3CCC4(c5cc(NC(=O)CN6CCN(Cc7ccc(C(F)(F)F)cc7)CC6)c(OC)cc5N(C)C4C(O)(C(=O)OC)C1OC(C)=O)C32 (stereo not drawn) [Compound 18] : 63.9%
CCC12C=CCN3CCC4(c5cc(NC(=O)CN6CCN(Cc7ccc(F)cc7)CC6)c(OC)cc5N(C)C4C(O)(C(=O)OC)C1OC(C)=O)C32 (stereo not drawn) [Compound 19] : 103%
CC[C@]12C=CCN3CC[C@@]4(c5ccc(OC)cc5N(C)[C@H]4[C@@](O)(C(=O)OC)[C@@H]1OC(=O)CCC(=O)N1CCN(C(=O)c4ccco4)CC1)[C@@H]32 [Compound 32] : 98.2%
CCC12C=CCN3CCC4(c5ccc(OC)cc5N(C)C4C(O)(C(=O)OC)C1O)C32 (stereo not drawn) [Compound 13, 17-desacetylvindoline] : 89%
CCC12C=CCN3CC[C@@]4(c5ccc(OC)cc5N(C)[C@H]4[C@@](O)(C(=O)OC)[C@@H]1OC(C)=O)[C@@H]32 (stereo partly drawn) [Compound 1, vindoline] : 104%

Ask | Consider the compound shown here: CC[C@]12C=CCN3CC[C@@]4(c5ccc(OC)cc5N(C)[C@H]4[C@@](O)(C(=O)OC)[C@@H]1OC(=O)CCCN1CCN(C(c4ccc(F)cc4)c4ccc(F)cc4)CC1)[C@@H]32 [Compound 25] What is its recorded activity at 10 µM?
Reply | -78.7%

###

- Test system: MOLT-4
- Test Protocol: NCI60 five-dose screen, Leukemia
- Assay type: cell-based
- Settings: Homo sapiens; MOLT-4, Leukemia; five-dose screen; read-out: GI50
With a cut-off of 2000 nM, any GI50 strictly below it is called yes; any GI50 meeting it or above is called no.

Consider the worked cases shown below.
CC[C@]12C=CCN3CC[C@@]4(c5ccc(OC)cc5N(C)[C@H]4[C@@](O)(C(=O)OC)[C@@H]1OC(=O)CCCN1CCN(Cc4ccc(C(F)(F)F)cc4)CC1)[C@@H]32 : yes
CC[C@]12C=CCN3CC[C@@]4(c5ccc(OC)cc5N(C)[C@H]4[C@@](O)(C(=O)OC)[C@@H]1OC(=O)CCC(=O)N1CCN(c4ccc(C(F)(F)F)cc4)CC1)[C@@H]32 : yes

Ask | Is 2000 nM strictly greater than the compound's reported GI50? compound: `CC[C@]12C=CCN3CC[C@@]4(c5ccc(OC)cc5N(C)[C@H]4[C@@](O)(C(=O)OC)[C@@H]1OC(=O)CCC(=O)N1CCN(C(c4ccc(F)cc4)c4ccc(F)cc4)CC1)[C@@H]32`
Reply | yes
